- system-under-test: BChE (horse serum EC 3.1.1.8) (Equus caballus)
- Construct: purchased Sigma-Aldrich (St. Louis, MO, USA); host or cells: horse serum
- test-protocol: biochemical
- details: SEM of five assays, read-out: BChE ± SEM (IC50)
value-kind: IC50 (µM)
Write it as a number; the unit µM goes unstated.

Give reported IC50 for C=C1CC23CC(=O)C4C5(C)CC(O)C(O)C46C(C2C(=O)C1CC36O)N(C)C5 (stereo not drawn) [Compound 1, 9β-hydroxy hetidine] (BChE (horse serum EC 3.1.1.8) (Equus caballus))
28.2

* * *

- system-under-test: BChE (horse serum EC 3.1.1.8) (Equus caballus, UniProt P81908)
- Construct: purchased Sigma-Aldrich (St. Louis, MO, USA); host or cells: horse serum
- Sequence (P81908 whole entry): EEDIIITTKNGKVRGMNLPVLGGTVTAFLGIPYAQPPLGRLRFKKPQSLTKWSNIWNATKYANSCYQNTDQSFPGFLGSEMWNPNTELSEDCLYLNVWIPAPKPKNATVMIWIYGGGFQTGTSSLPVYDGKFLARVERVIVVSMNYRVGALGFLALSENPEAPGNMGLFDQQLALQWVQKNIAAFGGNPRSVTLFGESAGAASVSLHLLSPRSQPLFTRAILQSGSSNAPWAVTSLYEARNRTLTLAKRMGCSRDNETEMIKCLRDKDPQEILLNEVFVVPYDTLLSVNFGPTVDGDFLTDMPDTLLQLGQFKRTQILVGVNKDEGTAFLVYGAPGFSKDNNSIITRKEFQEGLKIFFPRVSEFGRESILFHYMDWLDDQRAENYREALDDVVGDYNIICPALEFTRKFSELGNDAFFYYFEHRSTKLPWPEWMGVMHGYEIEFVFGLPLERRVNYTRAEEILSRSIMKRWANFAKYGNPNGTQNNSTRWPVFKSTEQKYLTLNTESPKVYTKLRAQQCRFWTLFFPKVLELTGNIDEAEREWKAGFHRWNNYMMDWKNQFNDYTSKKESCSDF
- test-protocol: biochemical
- details: read-out: BChE ± SEM (IC50), SEM of five assays
value-kind: IC50 (µM)
Write the answer as a number in µM, unit excluded.

Please give measured IC50 of the following entry: C=C1CC23CC(=O)C4C5(C)CC(O)C(O)C46C(C2CC1(O)C(O)C36O)N(C)C5O (stereo not drawn) [Compound 3, 1α, 2, 9,11,12,19β-hexahydoxy atisinone]
26.3

// Input: C=C1CC23CC(=O)C4C56C(C2C(=O)C1(O)C(O)C35O)N(C)C(O)[C@]4(C)CC(O)[C@@H]6O (stereo partly drawn) [Compound 2, 9,11,12,19β- tetrahydoxy hetidine] . Output its IC50 only.
24.3

* * *

- system-under-test: AChE (Electric-eel EC 3.1.1.7) (Electrophorus electricus, UniProt O42275)
- Construct: purchased Sigma-Aldrich (St. Louis, MO, USA)
- Sequence (O42275 24-633): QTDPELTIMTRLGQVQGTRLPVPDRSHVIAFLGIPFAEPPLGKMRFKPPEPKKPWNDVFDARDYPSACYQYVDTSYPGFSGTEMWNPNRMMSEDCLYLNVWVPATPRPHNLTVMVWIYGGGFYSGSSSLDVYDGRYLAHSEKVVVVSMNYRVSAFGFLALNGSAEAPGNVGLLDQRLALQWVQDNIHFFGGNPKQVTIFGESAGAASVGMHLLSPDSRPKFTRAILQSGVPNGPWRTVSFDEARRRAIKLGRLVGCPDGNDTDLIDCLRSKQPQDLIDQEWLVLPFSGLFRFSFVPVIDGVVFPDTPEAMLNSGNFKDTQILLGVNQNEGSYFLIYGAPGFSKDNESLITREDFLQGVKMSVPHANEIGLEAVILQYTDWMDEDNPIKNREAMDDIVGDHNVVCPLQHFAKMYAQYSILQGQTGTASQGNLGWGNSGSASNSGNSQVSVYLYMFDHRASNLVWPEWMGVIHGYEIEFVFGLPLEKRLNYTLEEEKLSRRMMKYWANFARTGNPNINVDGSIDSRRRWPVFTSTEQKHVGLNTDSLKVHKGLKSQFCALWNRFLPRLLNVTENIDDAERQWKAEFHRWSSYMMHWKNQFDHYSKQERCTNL
- test-protocol: biochemical
- details: read-out: AChE ± SEM (IC50); Electric-eel AChE; SEM of five assays
value-kind: IC50 (µM)
Write the number in µM without appending the unit.

Give the observed IC50 of C=C1CC23CC(=O)C4C5(C)CC(O)C(O)C46C(C2CC1(O)C(O)C36O)N(C)C5O (centres unmarked) for AChE (Electric-eel EC 3.1.1.7) (Electrophorus electricus, UniProt O42275).
12.1

Answer with IC50 of C=C1CC23CC(=O)C4C56C(C2C(=O)C1(O)C(O)C35O)N(C)C(O)[C@]4(C)CC(O)[C@@H]6O (some centres unmarked) measured for AChE (Electric-eel EC 3.1.1.7) (Electrophorus electricus, UniProt O42275).
11.6

* * *

- system-under-test: AChE (Electric-eel EC 3.1.1.7) (Electrophorus electricus, UniProt O42275)
- Construct: purchased Sigma-Aldrich (St. Louis, MO, USA)
- test-protocol: biochemical
- details: Electric-eel AChE; SEM of five assays; read-out: AChE ± SEM (IC50)
value-kind: IC50 (µM)
Note: unit µM is implicit; provide only the numeric part.

Tell me IC50 of C=C1CC23CC(=O)C4C5(C)CC(O)C(O)C46C(C2C(=O)C1CC36O)N(C)C5 (stereo not drawn) [Compound 1, 9β-hydroxy hetidine] when tested on AChE (Electric-eel EC 3.1.1.7) (Electrophorus electricus, UniProt O42275).
13.9

Just for reference, paper PMC9325274 is where these values come from.
